// read-out IC50, gathered for Insulin-like growth factor 1 receptor (Homo sapiens) from published studies

Some solved entries appear below for comparison.
>>> df
                                   molecule     assay_value
0        CC(=O)Nc1cccc(-c2cnc3[nH]ccc3c2)c1      ≤ 10000 nM
1  Cc1c(Cl)cccc1OC[C@H](O)CNc1cc[nH]c(=O)c1-c1nc2cc3c(cc2[nH]1)C(=O)N(C1CCN(CCN(C)C)CC1)C3=O        < 500 nM
2  COc1cc(-c2ccccc2)nc2cc(-c3nn([C@H]4C[C@](C)(O)C4)c(N)c3C(N)=O)c(F)cc12        ≤ 100 nM
3  C=CC(=O)Nc1cc(Nc2nccc(-c3cn(C)c4ccccc34)n2)c(OC)cc1N(C)C12CC(N(C)C)(C1)C2        ≥ 100 nM
4  O=C1c2cc3nc(-c4c(NC[C@@H](O)COc5c(F)ccc(Cl)c5F)cc[nH]c4=O)[nH]c3cc2C(=O)N1CC1CCN(CCO)CC1        < 500 nM
5  CN1CCC(N2C(=O)c3cc4nc(-c5c(NC[C@@H](O)Cn6cnc7ccccc76)ccnc5O)[nH]c4cc3C2=O)CC1  500 to 5000 nM
6  O=C1NC(=O)c2cc3[nH]c(-c4c(NC[C@@H](O)c5cccc(Cl)c5)cc[nH]c4=O)nc3cc21      > 15000 nM
7  C=CC(=O)N[C@@H]1CN(c2nc(Nc3cn(CCN(C)C)nc3OC)c3ncc(C)n3n2)C[C@H]1F        ≥ 100 nM

Could you tell me IC50 for each of these molecules? They are listed below.
1. C[C@]1(O)C[C@@H](n2nc(-c3ccc4cc(F)c(-c5ccccc5)nc4c3F)c(C(N)=O)c2N)C1
2. Cc1cc(OCC(O)CNc2cc[nH]c(=O)c2-c2nc3cc4c(cc3[nH]2)C(=O)N(C2CCN(C)CC2)C4=O)ccc1Cl (centres unmarked)
3. CN1CCC(N2C(=O)c3cc4nc(-c5c(NC[C@@H](O)COc6cccc(-c7ccccc7)c6)cc[nH]c5=O)[nH]c4cc3C2=O)CC1

1: 100 to 1000 nM; 2: 5000 to 15000 nM; 3: 500 to 5000 nM

For each listed entry, give its IC50.
1. COc1cc(-c2ccccc2F)nc2cc(-c3nn([C@H]4C[C@@](C)(O)C4)c(N)c3C(N)=O)ccc12
2. CN1CCC(N2C(=O)c3cc4nc(-c5c(NCC(O)COc6ccc(Cl)cc6)cc[nH]c5=O)[nH]c4cc3C2=O)CC1 (centres unmarked)

1: ≤ 100 nM; 2: 500 to 5000 nM

Name the recorded IC50 of COc1cc(-c2ccccc2)nc2cc(-c3nn([C@H]4C[C@@](C)(O)C4)c(N)c3C(N)=O)ccc12 , assay system Insulin-like growth factor 1 receptor (Homo sapiens).
≤ 100 nM
